# System: SLC16A11
# ASSAY REMARKS: SLC16A11 protein-protein interaction study (immunoprecipitation, quantitative mass spectrometry)
# Parameters: species or system human
# ASSAY CONDITIONS: putative SLC16A11^REF interaction partners; immunoprecipitation from HEK293T cells vs empty vector control; Blandt-Altman
ENDPOINT NAME: BA log fold change

Prompt: Name the recorded BA log fold change of the item VDAC2 (protein) MSWCNELRLPALKQHSIGRGLESHITMCIPPSYADLGKAARDIFNKGFGFGLVKLDVKTKSCSGVEFSTSGSSNTDTGKVTGTLETKYKWCEYGLTFTEKWNTDNTLGTEIAIEDQICQGLKLTFDTTFSPNTGKKSGKIKSSYKRECINLGCDVDFDFAGPAIHGSAVFGYEGWLAGYQMTFDSAKSKLTRNNFAVGYRTGDFQLHTNVNDGTEFGGSIYQKVCEDLDTSVNLAWTSGTNCTRFGIAAKYQLDPTASISAKVNNSSLIGVGYTQTLRPGVKLTLSALVDGKSINAGGHKVGLALELEA in your answer.
Response: 1.14
